# system.tested: GSK3β (Homo sapiens, UniProt P49841)
# Sequence (P49841 whole entry): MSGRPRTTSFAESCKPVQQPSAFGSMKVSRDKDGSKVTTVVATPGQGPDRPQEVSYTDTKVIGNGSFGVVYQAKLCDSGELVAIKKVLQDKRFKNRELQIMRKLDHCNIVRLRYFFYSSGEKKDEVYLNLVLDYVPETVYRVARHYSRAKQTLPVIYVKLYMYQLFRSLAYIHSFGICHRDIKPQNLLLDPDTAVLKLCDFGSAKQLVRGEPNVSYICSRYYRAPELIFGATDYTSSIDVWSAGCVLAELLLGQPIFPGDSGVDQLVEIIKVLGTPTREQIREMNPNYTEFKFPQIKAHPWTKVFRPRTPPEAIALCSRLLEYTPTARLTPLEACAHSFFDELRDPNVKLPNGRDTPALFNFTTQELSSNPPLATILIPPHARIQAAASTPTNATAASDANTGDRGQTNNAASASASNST
pIC50: −log10 of the molar value.
parameter.measured: pIC50

[[record]]
molecule_smiles = "Nc1nc(NCCNc2nc(-c3ccc(Cl)cc3Cl)cc3nc(C4CCN(CC5CC5)CC4)nn23)ccc1C(=O)C(F)(F)F"
system_tested = "GSK3β (Homo sapiens, UniProt P49841)"
parameter_measured = "pIC50"
recorded_value = 7.70


[A] CC(C)N1CCC(c2nc3cc(-c4ccc(Cl)cc4Cl)nc(NCCNc4ccc(C(=O)C(F)(F)F)c(N)n4)n3n2)CC1
[B] Nc1nc(NCCNc2nc(-c3ccc(Cl)cc3Cl)cc3nc(C4CCN(CC(=O)O)CC4)nn23)ccc1C(=O)C(F)(F)F
Ask: Looking at A and B , which one comes out lower in pIC50 terms? // return label of chosen record
Reply: A
(A: 7.82, B: 8.05)
